Assignment: determine reported Activity for the given compounds.
# EXPERIMENT DESCRIPTION: Hydrolytic stability assessed as compound degradation per ug of protein at 10 uM after 90 mins by scintillation counting in presence of human recombinant cathepsin A
# CONDITION PARAMETERS: 1.5 h
Returns: string containing the number followed by the unit.

Example entries begin here.
# COMPOUND, RESULT
data = [
    ("CCCCOC(=O)[C@H](Cc1ccccc1)NP(=O)(CO[C@@H]1C=C(F)[C@H](n2cnc3c(N)ncnc32)O1)N[C@@H](Cc1ccccc1)C(=O)OCCCC", "66680 pmol/min"),
    ("CCCOC(=O)[C@H](C)NP(=O)(CO[C@@H]1C=C(F)[C@H](n2cnc3c(N)ncnc32)O1)Oc1ccccc1 (stereo partly drawn)", "19103 pmol/min"),
    ("C[C@H](NP(=O)(CO[C@@H]1C=C(F)[C@H](n2cnc3c(N)ncnc32)O1)Oc1ccccc1)C(=O)OC1CCCC1 (stereo partly drawn)", "5688 pmol/min"),
    ("CCC(CC)OC(=O)[C@H](C)NP(=O)(CO[C@@H]1C=C(F)[C@H](n2cnc3c(N)ncnc32)O1)Oc1ccccc1 (stereo partly drawn)", "0 pmol/min"),
    ("CC(C)COC(=O)CNP(=O)(CO[C@@H]1C=C(F)[C@H](n2cnc3c(N)ncnc32)O1)Oc1ccccc1 (stereo partly drawn)", "226 pmol/min"),
    ("CC(C)COC(=O)[C@H](Cc1ccccc1)NP(=O)(CO[C@@H]1C=C(F)[C@H](n2cnc3c(N)ncnc32)O1)Oc1ccccc1 (stereo partly drawn)", "29655 pmol/min"),
]

Hello, I would appreciate it if you could give Activity for each entry below.
1. CC[C@H](NP(=O)(CO[C@@H]1C=C(F)[C@H](n2cnc3c(N)ncnc32)O1)N[C@@H](CC)C(=O)OC(C)C)C(=O)OC(C)C
2. CCCCSC(=O)[C@@H](Cc1ccccc1)NP(=O)(CO[C@@H]1C=C(F)[C@H](n2cnc3c(N)ncnc32)O1)Oc1ccccc1 (stereo partly drawn)
3. CCCCOC(=O)[C@H](CC)NP(=O)(CO[C@@H]1C=C(F)[C@H](n2cnc3c(N)ncnc32)O1)Oc1ccccc1 (stereo partly drawn)
4. CCCCOC(=O)[C@H](C)NP(=O)(CO[C@@H]1C=C(F)[C@H](n2cnc3c(N)ncnc32)O1)N[C@@H](C)C(=O)OCCCC
5. CC[C@H](NP(=O)(CO[C@@H]1C=C(F)[C@H](n2cnc3c(N)ncnc32)O1)N[C@@H](CC)C(=O)OCC(C)C)C(=O)OCC(C)C
6. CCCCCOC(=O)[C@H](C)NP(=O)(CO[C@@H]1C=C(F)[C@H](n2cnc3c(N)ncnc32)O1)Oc1ccccc1 (stereo partly drawn)
7. C[C@H](NP(=O)(CO[C@@H]1C=C(F)[C@H](n2cnc3c(N)ncnc32)O1)Oc1ccccc1)C(=O)OC1CCC1 (stereo in doubt; 18r)
8. CC(C)COC(=O)CNP(=O)(CO[C@@H]1C=C(F)[C@H](n2cnc3c(N)ncnc32)O1)NCC(=O)OCC(C)C

[reply]
0 pmol/min
1510 pmol/min
1377 pmol/min
17355 pmol/min
867 pmol/min
5088 pmol/min
18150 pmol/min
0 pmol/min

Hi! Can you tell me Activity for each of these compounds?
1. CC(C)COC(=O)[C@H](Cc1ccccc1)NP(=O)(CO[C@@H]1C=C(F)[C@H](n2cnc3c(N)ncnc32)O1)OCC(F)(F)F (stereo partly drawn)
2. CC(C)COC(=O)[C@H](C)NP(=O)(CO[C@@H]1C=C(F)[C@H](n2cnc3c(N)ncnc32)O1)N[C@@H](C)C(=O)OCC(C)C
3. Nc1ncnc2c1ncn2[C@@H]1O[C@H](OCP(=O)(N[C@@H](Cc2ccccc2)C(=O)OCC2CC2)Oc2ccccc2)C=C1F (stereo partly drawn)
4. Nc1ncnc2c1ncn2[C@@H]1O[C@H](OCP(=O)(N[C@@H](Cc2ccccc2)C(=O)OCC2CCC2)Oc2ccccc2)C=C1F (stereo partly drawn)
5. CCCCOC(=O)[C@H](C)NP(=O)(CO[C@@H]1C=C(F)[C@H](n2cnc3c(N)ncnc32)O1)Oc1ccccc1 (stereo partly drawn)
6. CCCOC(=O)[C@H](Cc1ccccc1)NP(=O)(CO[C@@H]1C=C(F)[C@H](n2cnc3c(N)ncnc32)O1)N[C@@H](Cc1ccccc1)C(=O)OCCC
7. CCOC(=O)[C@H](C)NP(=O)(CO[C@@H]1C=C(F)[C@H](n2cnc3c(N)ncnc32)O1)OCC(F)(F)F (stereo partly drawn)

[reply]
1: 30107 pmol/min; 2: 1770 pmol/min; 3: 39270 pmol/min; 4: 37017 pmol/min; 5: 6183 pmol/min; 6: 27642 pmol/min; 7: 1132 pmol/min

Please give Activity for each item listed below.
1. CC(C)OC(=O)[C@H](C)NP(=O)(CO[C@@H]1C=C(F)[C@H](n2cnc3c(N)ncnc32)O1)Oc1ccccc1 (stereo in doubt; 18s)
2. C[C@H](NP(=O)(CO[C@@H]1C=C(F)[C@H](n2cnc3c(N)ncnc32)O1)Oc1ccccc1)C(=O)OC1CCC1 (stereo in doubt; 18r(A))
3. CCCCOC(=O)[C@H](CC)NP(=O)(CO[C@@H]1C=C(F)[C@H](n2cnc3c(N)ncnc32)O1)N[C@@H](CC)C(=O)OCCCC

[reply]
216 pmol/min
2527 pmol/min
1872 pmol/min

Please state, for each entry, its recorded Activity.
1. CC[C@H](NP(=O)(CO[C@@H]1C=C(F)[C@H](n2cnc3c(N)ncnc32)O1)Oc1ccccc1)C(=O)OCC(C)C (stereo partly drawn)
2. CC(C)OC(=O)[C@H](C)NP(=O)(CO[C@@H]1C=C(F)[C@H](n2cnc3c(N)ncnc32)O1)Oc1ccccc1 (stereo in doubt; 24)
3. C[C@H](NP(=O)(CO[C@@H]1C=C(F)[C@H](n2cnc3c(N)ncnc32)O1)Oc1ccccc1)C(=O)OC1CCC1.Cl.Cl (stereo partly drawn)
4. CCOC(=O)[C@H](Cc1ccccc1)NP(=O)(CO[C@@H]1C=C(F)[C@H](n2cnc3c(N)ncnc32)O1)N[C@@H](Cc1ccccc1)C(=O)OCC

[reply]
728 pmol/min
35000 pmol/min
23997 pmol/min
41020 pmol/min
